meta.source: patent US20260116991A1

Molecular target: T1, human GPC3-His protein (human, UniProt P51654 25-559)
T1 construct: Bought protein; also called human GPC3 protein; not shown: His tag
Assay: ELISA, coated human GPC3, antibody 0.1 nM;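 also: antigen coated on 96-well plates at 1 µg/mL, antibody bound 2 h at 37 °C, detected with HRP-labeled secondary antibody and TMB substrate, acid-stopped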
Each entry gets Not fulfilled if its OD450 nm stays under 1 OD450, and Fulfilled if its OD450 nm is 1 OD450 or above.

# binder, cat
rows = [
    ("F3.38.7 human-murine chimeric antibody (antibody, human IgG1, kappa, V domains shown) VH: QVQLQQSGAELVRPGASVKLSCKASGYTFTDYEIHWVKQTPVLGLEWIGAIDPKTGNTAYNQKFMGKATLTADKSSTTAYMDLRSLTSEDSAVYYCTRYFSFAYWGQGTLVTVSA VL: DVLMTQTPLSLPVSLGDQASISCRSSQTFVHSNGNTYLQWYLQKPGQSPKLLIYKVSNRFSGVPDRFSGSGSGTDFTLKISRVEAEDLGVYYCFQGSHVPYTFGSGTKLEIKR", "Fulfilled"),
]

stdin: Quick check, OD450 nm >= 1 OD450? F1.110.24 human-murine chimeric antibody (antibody, human IgG1, kappa, V domains shown) VH: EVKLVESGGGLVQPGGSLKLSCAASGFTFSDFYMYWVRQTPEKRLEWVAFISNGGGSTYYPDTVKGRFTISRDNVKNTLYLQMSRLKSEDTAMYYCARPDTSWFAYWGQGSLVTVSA VL: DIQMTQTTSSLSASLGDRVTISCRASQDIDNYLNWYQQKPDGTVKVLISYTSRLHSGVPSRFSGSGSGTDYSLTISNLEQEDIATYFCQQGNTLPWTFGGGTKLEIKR
stdout: Not fulfilled

stdin: Quick check, OD450 nm >= 1 OD450? F1.42.8 human-murine chimeric antibody (antibody, human IgG1, kappa, V domains shown) VH: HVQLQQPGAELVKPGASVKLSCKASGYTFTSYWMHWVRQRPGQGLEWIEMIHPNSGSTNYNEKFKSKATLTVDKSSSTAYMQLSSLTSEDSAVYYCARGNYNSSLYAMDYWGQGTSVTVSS VL: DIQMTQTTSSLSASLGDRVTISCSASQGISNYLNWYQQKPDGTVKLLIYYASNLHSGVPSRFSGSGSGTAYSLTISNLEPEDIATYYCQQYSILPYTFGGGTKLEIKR
stdout: Fulfilled

stdin: Quick check, OD450 nm >= 1 OD450? F4.13.7 human-murine chimeric antibody (antibody, human IgG1, kappa, V domains shown) VH: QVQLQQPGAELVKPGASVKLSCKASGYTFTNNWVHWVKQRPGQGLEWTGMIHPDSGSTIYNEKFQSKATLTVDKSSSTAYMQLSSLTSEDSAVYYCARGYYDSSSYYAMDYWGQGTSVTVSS VL: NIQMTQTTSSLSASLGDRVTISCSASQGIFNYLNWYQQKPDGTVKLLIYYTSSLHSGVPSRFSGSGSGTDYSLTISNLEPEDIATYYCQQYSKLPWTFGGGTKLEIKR
stdout: Fulfilled

stdin: Quick check, OD450 nm >= 1 OD450? F2.23.8 human-murine chimeric antibody (antibody, human IgG1, kappa, V domains shown) VH: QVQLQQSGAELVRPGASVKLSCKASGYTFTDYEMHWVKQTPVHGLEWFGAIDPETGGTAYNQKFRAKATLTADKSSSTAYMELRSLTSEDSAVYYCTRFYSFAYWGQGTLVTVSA VL: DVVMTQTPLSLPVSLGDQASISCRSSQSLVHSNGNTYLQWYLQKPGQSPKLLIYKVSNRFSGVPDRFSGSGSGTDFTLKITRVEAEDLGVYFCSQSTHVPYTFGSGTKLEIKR
stdout: Fulfilled
